Form field: Raw Data (one value per entry).
# target-desc: human PPARγ- LBD (Homo sapiens)
# Construct: a mixture of a human PPARγ- LBD labelled with glutathione S-transferase (GST)
# Sequence (P37231 238-503 limits assumed): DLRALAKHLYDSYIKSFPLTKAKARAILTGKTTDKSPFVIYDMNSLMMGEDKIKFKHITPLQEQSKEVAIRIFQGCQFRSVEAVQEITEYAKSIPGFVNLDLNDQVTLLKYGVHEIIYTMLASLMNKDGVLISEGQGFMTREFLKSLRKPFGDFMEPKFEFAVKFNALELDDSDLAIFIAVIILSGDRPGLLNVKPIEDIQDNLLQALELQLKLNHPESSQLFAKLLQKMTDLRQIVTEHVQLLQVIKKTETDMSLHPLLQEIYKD
# protocol: Lanthascreen TR-FRET PPARγ competitive binding assay
# condition-details: TR-FRET, 0.032 µM

chemical-string | target-desc | Raw Data / RLU
C=CCc1ccc(OCC(=O)Nc2cccc(Cl)c2)c(OC)c1 | human PPARγ- LBD (Homo sapiens) | 1.988
C=CCc1ccc(OCC(=O)Nc2ccc([N+](=O)[O-])cc2)c(OC)c1 | human PPARγ- LBD (Homo sapiens) | 1.859
C=CCc1ccc(OCC(=O)Nc2ccccc2Cl)c(OC)c1 | human PPARγ- LBD (Homo sapiens) | 1.766
C=CCc1ccc(OCC(=O)Nc2ccccc2C)c(OC)c1 | human PPARγ- LBD (Homo sapiens) | 1.902
C=CCc1ccc(OCC(=O)Nc2ccccc2)c(OC)c1 | human PPARγ- LBD (Homo sapiens) | 2.058
C=CCc1ccc(OCC(=O)Nc2cccc(C(F)(F)F)c2)c(OC)c1 | human PPARγ- LBD (Homo sapiens) | 1.99
